The measurements presented in this section are drawn from the supplement of paper PMC6607015.

# Tested on: A431
# Assay info: LBPA endosome anti-LBPA integrated intensity (sum per cell), Z-score; higher = more LBPA staining
# Condition label: compound concentration in added solution (µM; 5 µl added to 20 µl cells): 10; 18 h
Counter-ions that a name gives are not always drawn.
Outcome: YES for LBPA endosome anti-LBPA integrated intensity (z-score) of at least -0.3; NO for anything lower.

- Compound: "CCOc1ccc(Cc2nccc3cc(OCC)c(OCC)cc23)cc1OCC [Ethaverine hydrochloride]"
  Subject of test: "A431"
  Class assignment: "YES"
- Compound: "CC(=O)OCC1=C(C(=O)O)N2C(=O)[C@@H](NC(=O)Cc3cccs3)[C@H]2SC1 [Cephalothin sodium salt]"
  Subject of test: "A431"
  Class assignment: "NO"
- Compound: "CCN1CCC[C@H]1CNC(=O)c1c(OC)ccc(Br)c1OC [Remoxipride Hydrochloride]"
  Subject of test: "A431"
  Class assignment: "NO"

Could you verify whether the entry C[n+]1ccccc1/C=N/O [Pralidoxime chloride] shows LBPA endosome anti-LBPA integrated intensity (z-score) of no less than -0.3?
NO

Textbook exercise: given the entry CNCCC=C1c2ccccc2CCc2ccccc21 [Nortriptyline hydrochloride] , state whether its LBPA endosome anti-LBPA integrated intensity (z-score) is greater than or equal to -0.3.
YES

====

# System: A431
# Assay info: filipin (cholesterol) integrated intensity within LBPA endosomes, Z-score; higher = more cholesterol in LBPA endosomes
# Condition label: compound concentration in added solution (µM; 5 µl added to 20 µl cells): 10; 18 h
Test readout: filipin (z-score)
Answers are plain numbers.

Please report filipin (z-score) for every entry that follows.
1. CCC1=C(C)CN(C(=O)NCCc2ccc(S(=O)(=O)NC(=O)N[C@H]3CC[C@H](C)CC3)cc2)C1=O [Glimepiride]
2. Oc1c(Cl)cc(Cl)c2cccnc12 [Chloroxine]
3. Cc1ncc([N+](=O)[O-])n1CCO [Metronidazole]

1: -0.467; 2: -0.75; 3: -0.459

====

I'd appreciate it if you could supply whole-cell filipin (z-score) values for the items below.
# Test system: HeLa MZ
# Assay info: whole-cell filipin (free cholesterol) integrated intensity, Z-score; higher = more cholesterol staining
# Condition label: compound concentration in added solution (µM; 5 µl added to 20 µl cells): 10; 18 h
Structures can show the parent of a compound that is named as a salt.
Answers are plain numbers.

Field: example entries. Status: answers known.
- Compound: "S=c1[nH]cnc2nc[nH]c12"
  whole-cell filipin (z-score): -1.37
- Compound: "COC1=CC(=O)C[C@@H](C)[C@]12Oc1c(Cl)c(OC)cc(OC)c1C2=O"
  whole-cell filipin (z-score): -1.73

Read the next record carefully.
Would you mind telling me what whole-cell filipin (z-score) value was observed for CN(C)[C@@H]1C(O)=C(C(N)=O)C(=O)[C@@]2(O)C(O)=C3C(=O)c4c(O)ccc(Cl)c4[C@@H](O)[C@H]3C[C@@H]12 [Demeclocycline hydrochloride] ?
-1.1

====

# Test system: A431
# Assay info: whole-cell filipin (free cholesterol) integrated intensity, Z-score; higher = more cholesterol staining
# Condition label: compound concentration in added solution (µM; 5 µl added to 20 µl cells): 10; 18 h
Where a name gives a salt, the structure may show the parent alone.
Give whole-cell filipin (z-score) for every item shown.

Take a look at these entries with their results.
- Compound: "CCc1cc(C(N)=S)ccn1 [Ethionamide]"
  Test readout: "whole-cell filipin (z-score)"
  Measurement: -0.588
- Compound: "CNCC[C@@H](Oc1ccccc1C)c1ccccc1 [Tomoxetine hydrochloride]"
  Test readout: "whole-cell filipin (z-score)"
  Measurement: 0.0322
- Compound: "N/C(=N\\C(=O)c1nc(Cl)c(N)nc1N)NCc1ccccc1 [Benzamil hydrochloride]"
  Test readout: "whole-cell filipin (z-score)"
  Measurement: 0.167

Kindly review the next compound as well.
Reported whole-cell filipin (z-score) for COc1cc(C(=O)NS(=O)(=O)c2ccccc2C)ccc1Cc1cn(C)c2ccc(NC(=O)OC3CCCC3)cc12 : what is it?
-0.458
